- measuredOn: T1, dog Protein C (zymogen) (dog, UniProt Q28278 43-456)
- T1 construct: mature; also called dog PC
- T1 sequence (looked up): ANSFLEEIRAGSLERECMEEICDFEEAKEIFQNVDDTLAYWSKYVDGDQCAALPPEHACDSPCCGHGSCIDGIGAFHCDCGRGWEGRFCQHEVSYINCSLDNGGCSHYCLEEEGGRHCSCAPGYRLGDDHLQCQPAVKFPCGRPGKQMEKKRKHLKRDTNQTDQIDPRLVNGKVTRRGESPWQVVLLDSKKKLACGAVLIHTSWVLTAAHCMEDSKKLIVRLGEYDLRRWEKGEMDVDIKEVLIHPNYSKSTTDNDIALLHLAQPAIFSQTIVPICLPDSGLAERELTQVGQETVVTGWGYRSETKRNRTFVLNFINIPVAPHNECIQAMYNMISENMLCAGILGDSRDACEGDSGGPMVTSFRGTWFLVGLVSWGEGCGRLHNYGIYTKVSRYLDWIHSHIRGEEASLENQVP
- protocolDetails: direct ELISA, antigen coated
testReadout: binding result

binder	reportedValue
T46J23-hIgG1 (antibody, V domains shown, also called T46J23-IgG) VH: EVQLLESGGGLVQPGGSLRLSCAASGFTFGNHWMTWVRQAPGKGLEWVSGVSWNGSRTHYADSVKGRFTISRDNSKNTLYLQMNSLRAEDTAVYYCALTGRSGWMRFPNWFDPWGQGTLVTVTS VL: LTQPPSASGTPGQRVTISCTGTSSNIGAGYDVHWYQQLPGTAPKLLIYDNNNRPSGVPDRFSGSKSGTSASLAISGLRSEDEADYYCAAWDDSLNGVVFGGGTKLTVLG	no binding
C7I7 hIgG1 (antibody, V domains shown, also called C717-IgG) VH: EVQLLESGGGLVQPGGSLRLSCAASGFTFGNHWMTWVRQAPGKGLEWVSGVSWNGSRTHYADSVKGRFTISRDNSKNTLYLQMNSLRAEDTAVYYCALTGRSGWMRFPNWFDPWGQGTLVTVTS VL: QSVLTQPPSASGTPGQRVTISCTGSSSNIGAGYDVHWYQQLPGTAPKLLIYGNSNRPSGVPDRFSGSKSGTSASLAISGLRSEDEAAYYCSSYVGSDLVVFGGGTKLTVLG	no binding
C7A23 hIgG1 (antibody, V domains shown, also called C7A23-IgG) VH: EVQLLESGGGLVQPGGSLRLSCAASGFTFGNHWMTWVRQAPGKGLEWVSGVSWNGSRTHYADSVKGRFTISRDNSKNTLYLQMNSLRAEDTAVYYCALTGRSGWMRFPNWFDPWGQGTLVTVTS VL: QSVLTQPPSASGTPGQRVTISCSGSSSNIGNNYVSWYQQLPGTAPKLLIYRNNQRPSGVPDRFSGSKSGTSASLAISGLRSEDEADYYCQSYDSDLSGPYVLFGGGTKLTVLG	no binding

Source listed as patent US20150307625A1.
